Sourced from patent US12398093B2

The next entries give measured Ki for 5-HT2C (h) (Homo sapiens, UniProt P28335).
MEASURED_METRIC: Ki (nM)

{"columns": ["MOLECULE", "TEST_VALUE"],
 "data": [
  ["COc1cc(C[C@@H](C)N)c(OC)cc1I [R-DOI]", 0.631],
  ["COc1cc(CC(C)C)c(OC)cc1CCN [2C-iBu, 2,5-dimethoxy-4-isobutylphenethylamine]", 0.251]
]}

* * *

- TARGET_OF_ASSAY: 5-HT2A (h) (Homo sapiens, UniProt P28223)
- Sequence (P28223 whole entry): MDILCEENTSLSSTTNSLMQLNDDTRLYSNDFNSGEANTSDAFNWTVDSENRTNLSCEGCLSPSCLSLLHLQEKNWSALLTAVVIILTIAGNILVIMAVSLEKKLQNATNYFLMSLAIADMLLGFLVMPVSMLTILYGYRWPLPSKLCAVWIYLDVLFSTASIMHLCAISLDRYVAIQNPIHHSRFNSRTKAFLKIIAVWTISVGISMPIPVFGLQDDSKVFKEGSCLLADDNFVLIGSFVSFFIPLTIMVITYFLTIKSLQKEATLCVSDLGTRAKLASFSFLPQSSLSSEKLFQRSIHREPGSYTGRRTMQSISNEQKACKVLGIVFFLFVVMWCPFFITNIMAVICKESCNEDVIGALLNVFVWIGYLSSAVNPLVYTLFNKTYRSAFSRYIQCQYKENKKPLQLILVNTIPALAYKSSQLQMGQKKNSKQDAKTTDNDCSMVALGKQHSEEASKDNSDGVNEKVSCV
pKi: −log10 of the molar value.

{"columns": ["STRUCTURE_STRING", "pKi"],
 "data": [
  ["COc1cc(CC(C)C)c(OC)cc1CCN", 8.90]
]}

* * *

- ASSAY_REMARKS: In vitro metabolism, intrinsic clearance in human liver microsomes
- Format: in vitro ADME
- MEASUREMENT_PARAMETERS: human, human liver microsomes, 1.0×10^−7 M; read-out: Half-life (minutes), 1st
MEASURED_METRIC: half-life (min)

{"columns": ["MOLECULE", "MEASURED_METRIC", "CENSORING_SIGN", "TEST_VALUE"],
 "data": [
  ["COc1cc(CC(C)C)c(OC)cc1CCN [2C-iBu, 2,5-dimethoxy-4-isobutylphenethylamine]", "half-life", ">", 60],
  ["COc1cc(C[C@@H](C)N)c(OC)cc1I [R-DOI]", "half-life", "=", 139]
]}

* * *

Entries and their measured Papp B→A follow.
- ASSAY_REMARKS: In vitro absorption, Caco-2 permeability
- Type: in vitro ADME
- MEASUREMENT_PARAMETERS: human, Caco-2, pH 6.5, Caco-2, pH 6.5/7.4, 1.0×10^−5 M; read-out: B-A Permeability, 1st

{"columns": ["COMPOUND", "UNIT_ANNOTATION", "Papp B→A"],
 "data": [
  ["COc1cc(CC(C)C)c(OC)cc1CCN [2C-iBu, 2,5-dimethoxy-4-isobutylphenethylamine]", "×10⁻⁶ cm/s", 7.87],
  ["COc1cc(C[C@@H](C)N)c(OC)cc1I [R-DOI]", "×10⁻⁶ cm/s", 19.1]
]}

* * *

- ASSAY_REMARKS: In vitro absorption, Caco-2 permeability
- Type: in vitro ADME
- MEASUREMENT_PARAMETERS: human, Caco-2, pH 6.5, Caco-2, pH 6.5/7.4, 1.0×10^−5 M; read-out: % Recovery B-A, 1st

{"columns": ["STRUCTURE_STRING", "recovery / %"],
 "data": [
  ["COc1cc(C[C@@H](C)N)c(OC)cc1I", 87],
  ["COc1cc(CC(C)C)c(OC)cc1CCN", 70]
]}

* * *

- TARGET_OF_ASSAY: human 5-HT2A receptor (Homo sapiens, UniProt P28223)
- Construct: expressed in transfected cells
- Sequence (P28223 whole entry): as above
- ASSAY_REMARKS: Gq-mediated calcium transients (calcium mobilization), Fluo-4, HEK cells
- Type: cell-based
- MEASUREMENT_PARAMETERS: HEK293, read-out: EMAX (%) calcium mobilization

{"columns": ["MOLECULE", "Emax (%)"],
 "data": [
  ["COc1cc(C[C@@H](C)N)c(OC)cc1I", 112],
  ["COc1cc(CC(C)C)c(OC)cc1CCN", 88],
  ["COc1cc(CC(C)N)c(OC)cc1CC(C)C (stereo not shown)", 90.6],
  ["COc1cc(CC(C)(C)C)c(OC)cc1CCN", 76]
]}
